Recorded measurements of MCF7 (neuregulin stimulated) proliferation % inhibition at 10 µg/ml IgG, one per entry
- testTarget: Human HER3, endogenous, on human cancer cell lines (human, UniProt P21860 20-1342)
- experimentSummary: cell-based or functional assay
Numeric answer only, unit % assumed.

Please review the following examples before continuing.
Name the reported MCF7 (neuregulin stimulated) proliferation % inhibition at 10 µg/ml IgG value associated with the binder MOR09824 (antibody, human IgG1, kappa, V domains shown, tested as IgG) VH: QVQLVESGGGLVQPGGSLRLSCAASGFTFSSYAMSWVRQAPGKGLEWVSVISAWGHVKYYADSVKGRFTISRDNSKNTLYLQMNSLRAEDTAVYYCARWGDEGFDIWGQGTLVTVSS VL: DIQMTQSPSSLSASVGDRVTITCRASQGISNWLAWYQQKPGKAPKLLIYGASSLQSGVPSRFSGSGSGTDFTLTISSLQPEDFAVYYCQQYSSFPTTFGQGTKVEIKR
82

Name the reported MCF7 (neuregulin stimulated) proliferation % inhibition at 10 µg/ml IgG value associated with the binder MOR09823 (antibody, human IgG1, kappa, V domains shown, tested as IgG) VH: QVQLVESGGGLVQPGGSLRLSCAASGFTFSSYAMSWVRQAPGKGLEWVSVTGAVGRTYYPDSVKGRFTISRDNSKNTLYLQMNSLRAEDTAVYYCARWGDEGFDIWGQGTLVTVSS VL: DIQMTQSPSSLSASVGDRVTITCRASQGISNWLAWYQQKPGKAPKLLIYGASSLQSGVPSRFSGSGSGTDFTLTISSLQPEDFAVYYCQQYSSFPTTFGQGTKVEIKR
82

Name the reported MCF7 (neuregulin stimulated) proliferation % inhibition at 10 µg/ml IgG value associated with the binder MOR10703 (antibody, human IgG1, kappa, V domains shown, tested as IgG) VH: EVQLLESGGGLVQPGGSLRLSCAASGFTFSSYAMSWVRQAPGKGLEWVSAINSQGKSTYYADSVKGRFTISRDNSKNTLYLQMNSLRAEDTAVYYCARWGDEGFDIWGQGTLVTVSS VL: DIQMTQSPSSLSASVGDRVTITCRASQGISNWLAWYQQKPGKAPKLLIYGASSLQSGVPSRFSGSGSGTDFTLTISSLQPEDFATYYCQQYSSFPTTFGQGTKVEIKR
81

Name the reported MCF7 (neuregulin stimulated) proliferation % inhibition at 10 µg/ml IgG value associated with the binder MOR09974 (antibody, human IgG1, kappa, V domains shown, tested as IgG) VH: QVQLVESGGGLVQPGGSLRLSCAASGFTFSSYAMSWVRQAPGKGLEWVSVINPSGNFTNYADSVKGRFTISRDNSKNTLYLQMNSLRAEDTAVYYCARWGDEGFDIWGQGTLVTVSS VL: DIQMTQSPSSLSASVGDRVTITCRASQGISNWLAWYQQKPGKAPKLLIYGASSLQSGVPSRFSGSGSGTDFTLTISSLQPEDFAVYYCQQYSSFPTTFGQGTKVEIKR
20

Next item in the queue.
Name the reported MCF7 (neuregulin stimulated) proliferation % inhibition at 10 µg/ml IgG value associated with the binder MOR09825 (antibody, human IgG1, kappa, V domains shown, tested as IgG) VH: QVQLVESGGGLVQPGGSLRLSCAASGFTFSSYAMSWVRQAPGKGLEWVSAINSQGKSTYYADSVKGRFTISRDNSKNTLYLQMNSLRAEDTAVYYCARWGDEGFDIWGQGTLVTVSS VL: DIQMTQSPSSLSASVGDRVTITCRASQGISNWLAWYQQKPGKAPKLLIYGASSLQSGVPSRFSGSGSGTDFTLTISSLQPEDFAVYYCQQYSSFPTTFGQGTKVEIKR
63

Origin of values: patent US20130330324A1
